Target: T1, human MASP-3 (construct not stated) (human)
T1 construct: also called MASP-3 antigen
T1 chain: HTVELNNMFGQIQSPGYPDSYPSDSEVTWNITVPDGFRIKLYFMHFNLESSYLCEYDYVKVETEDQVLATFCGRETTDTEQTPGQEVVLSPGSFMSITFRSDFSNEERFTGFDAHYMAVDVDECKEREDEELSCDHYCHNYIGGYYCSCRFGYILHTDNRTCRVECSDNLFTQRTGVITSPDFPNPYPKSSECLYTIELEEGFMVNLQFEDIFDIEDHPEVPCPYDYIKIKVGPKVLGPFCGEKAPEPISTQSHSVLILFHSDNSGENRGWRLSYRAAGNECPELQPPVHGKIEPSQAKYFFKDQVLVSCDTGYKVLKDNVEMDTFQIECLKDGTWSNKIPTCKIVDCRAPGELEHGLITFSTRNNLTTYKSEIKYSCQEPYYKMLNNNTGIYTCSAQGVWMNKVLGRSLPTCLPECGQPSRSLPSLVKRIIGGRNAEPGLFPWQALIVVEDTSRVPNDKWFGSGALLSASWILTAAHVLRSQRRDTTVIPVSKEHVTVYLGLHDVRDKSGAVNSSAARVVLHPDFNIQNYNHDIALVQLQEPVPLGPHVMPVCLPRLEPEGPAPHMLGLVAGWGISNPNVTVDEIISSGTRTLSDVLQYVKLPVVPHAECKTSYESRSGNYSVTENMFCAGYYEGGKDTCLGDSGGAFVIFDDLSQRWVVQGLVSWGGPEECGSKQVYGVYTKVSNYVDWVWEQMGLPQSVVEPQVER
Assay: not described at this place
measured-parameter: binding affinity

A selection of reference data follows.
binder	binding affinity
MASP-3 mAb 1A10 (mouse-human chimeric IgG4) (antibody, V domains shown, The light chain of 1A10 was not identified) VH: QVQLKQSGPELVKPGASVKLSCKASGYTFTSNDINWVKQRPGQGLEWIGWIYPRDGTTKYNEKFTDKATLTVDVSSSTAFMELHRLTSEDSAVYFCSSVEDSYWGQGTLVTVSS VL: DIVMTQSPSSLAVSAGEKVTMSCKSSQSLLISRTRKNYLSWYQQKPGQSPKLLIYWASTRESGVPDRFTGSGSGTDFTLTISSVQAEDLAVYYCKQSYNLYTFGGGTKLEIKR	≤ 500 pM
MASP-3 mAb 1B11 (mouse-human chimeric IgG4) (antibody, V domains shown) VH: QVQLKQSGAELVRPGASVKLSCKASGYTFTDYYINWVKQRPGQGLEWIARIYPGSGNTYYNEKFKGKATLTAEKSSSTAYMQLSSLTSEDSAVYFCARNYYISSPWFAYWGQGTLVTVSS VL: DIVMTQSQKFMSTSVGDRVSVTCKASQNVGPNVAWYQQKPGQSPKALIYSASYRYSGVPDRFTGSGSGTDFTLTISNVQSEDLADYFCQQYNRYPLTFGAGTKLELKR	≤ 500 pM

Field: next binder
input: Can you look up the measured binding affinity of MASP-3 mAb 2D7 (mouse-human chimeric IgG4) (antibody, V domains shown) VH: EVQLQQSGPELVKPGASVKVSCKASGYTLTDYYMNWVKQSHGKSLEWIGDVNPNNDGTTYNQKFKGRATLTVDKSSNTASMELRSLTSEDSAVYYCAICPFYYLGKGTHFDYWGQGTSLTVSS VL: DIQMTQTPASLSASLGDRVTISCRASQDISNFLNWYQQKPNGTVKLLVFYTSRLHSGVPSRFSGSGSGAEHSLTISNLEQEDVATYFCQQGFTLPWTFGGGTKVEIKR for me?
output: ≤ 500 pM
